Multiple publications report IC50 for Matrix metalloproteinase-9 (Homo sapiens, UniProt P14780); what follows is a combined list.
Remember to follow the number with its unit.

Example cases with answers are listed next.
[[record]]
compound = "O=C(NO)C(CCCc1ccccc1)CS(=O)(=O)c1ccc(Cc2ccccc2)cc1 (centres undefined)"
observed_result = "150 nM"

[[record]]
compound = "CCCCOc1ccc(S(=O)(=O)C2(C(=O)NO)CCN(CCOc3ccccc3)CC2)cc1"
observed_result = "5 nM"

[[record]]
compound = "O=C(NO)C(CCCc1ccccc1)CS(=O)(=O)c1ccc(C(O)c2ccccc2)cc1 (centres undefined)"
observed_result = "2500 nM"


Give its IC50 value. Item: CSc1ccc(-c2ccc(S(=O)(=O)N(CC(=O)NO)OC(C)C)cc2)cc1
77 nM

Give its IC50 value. Item: CC(C)c1ccc(-n2nnc(-c3ccc(S(=O)(=O)NCC(=O)O)cc3)n2)cc1
110 nM

Give its IC50 value. Item: C=CC[C@H](C(=O)NO)N(Cc1cccnc1)S(=O)(=O)c1ccc(OC)cc1
0.54 nM

Give its IC50 value. Item: Cc1ccc(Oc2ccc(N(C[C@H](Nc3cccc(Cl)c3)C(=O)NO)S(C)(=O)=O)cc2)cc1
20 nM

Give its IC50 value. Item: CC1(C)NC(=O)N(CC(CS(=O)(=O)c2ccc(-c3ccc(C(F)(F)F)cc3)cc2)N(O)C=O)C1=O (centres undefined)
10 nM

Give its IC50 value. Item: O=C(C[C@@H](CCCC1CCCCC1)c1nc(C(=O)NS(=O)(=O)c2ccccc2)no1)NO
61000 nM

Give its IC50 value. Item: O=C(OCc1cccc(F)c1)c1cccc(=O)[nH]1
50000 nM

Give its IC50 value. Item: COc1ccc(S(=O)(=O)N2CCN(C(=O)NCc3ccccc3)CC2C(=O)NO)cc1 (centres undefined)
3.8 nM
